B1: 2M8U (parent)
chain: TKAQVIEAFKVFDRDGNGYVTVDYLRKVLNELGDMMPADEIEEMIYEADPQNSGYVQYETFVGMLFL

- Variants of: B1
- assay.protocol: folding stability dG (cDNA display proteolysis); higher = more stable
- condition.context: PBS, room temperature
assay.readout: folding stability dG

Worked examples follow.
L67D 4.28 kcal/mol
A8V 2.84 kcal/mol
M44Q 2.95 kcal/mol
G54K 2.47 kcal/mol
V28D 0.754 kcal/mol

[ask] Give its folding stability dG value. Item: `K27W`
[reply] 3.42 kcal/mol

[ask] Entry `N17S` please
[reply] 4.02 kcal/mol

[ask] Entry `E42K` please
[reply] 3.22 kcal/mol

[ask] Entry `D49A` please
[reply] 2.62 kcal/mol

[ask] Entry `F61P` please
[reply] 0.783 kcal/mol
